Here the recorded minimum inhibitory concentration (M.I.C.) is given for each entry.
system: Sal. typhimurium; experiment: Agar dilution assay, M.I.C.; assay type: cell-based
OBSERVABLE: minimum inhibitory concentration (M.I.C.) (mg/mL)

COMPOUND	VALUE_PREFIX	VALUE
C=C(F)[C@H](NC(=O)[C@@H](N)CCC)C(=O)O.O=C(O)C(F)(F)F	=	128
N[C@@H](C=CCl)C(=O)O	>	256
C=C(F)C(NC(=O)[C@@H](N)CCC)C(=O)O (stereo partly drawn)	=	256
C=C(Cl)C(NC(=O)[C@@H](N)CCC)C(=O)O (mixture of isomers)	=	256
C=C(F)[C@@H](NC(=O)[C@@H](N)CCC)C(=O)O.O=C(O)C(F)(F)F	>	256
C=C(Cl)[C@H](NC(=O)[C@@H](N)CCC)C(=O)O.O=C(O)C(F)(F)F	=	64

* * *

test system: E. coli TEM 2^+; test: Agar dilution assay, M.I.C.; type: cell-based
Here the recorded minimum inhibitory concentration (M.I.C.) is given for each entry.
OBSERVABLE: minimum inhibitory concentration (M.I.C.)

COMPOUND	VALUE
C=C(F)[C@@H](NC(=O)[C@@H](N)CCC)C(=O)O.O=C(O)C(F)(F)F	> 256 mg/mL
C=C(Cl)C(NC(=O)[C@@H](N)CCC)C(=O)O (mixture of isomers)	> 256 mg/mL
N[C@@H](C=CCl)C(=O)O	> 256 mg/mL
C=C(Cl)[C@H](NC(=O)[C@@H](N)CCC)C(=O)O.O=C(O)C(F)(F)F	8 mg/mL
C=C(F)C(NC(=O)[C@@H](N)CCC)C(=O)O (stereo partly shown)	128 mg/mL
CCC[C@H](N)C(=O)N[C@H](C=CCl)C(=O)O	256 mg/mL
C=C(F)[C@H](NC(=O)[C@@H](N)CCC)C(=O)O.O=C(O)C(F)(F)F	16 mg/mL

* * *

Here the recorded minimum inhibitory concentration (M.I.C.) is given for each entry.
tested on: Ser. marcescens; test: Agar dilution assay, M.I.C.; format: cell-based
OBSERVABLE: minimum inhibitory concentration (M.I.C.)

MOLECULE	VALUE
C=C(F)C(NC(=O)[C@@H](N)CCC)C(=O)O (stereo partly drawn) [(L)-NVA-(DL)-F-vinylgly]	256 mg/mL
C=C(F)[C@@H](NC(=O)[C@@H](N)CCC)C(=O)O.O=C(O)C(F)(F)F [(L)-NVA-(D)-F-vinylgly]	> 256 mg/mL
C=C(Cl)C(NC(=O)[C@@H](N)CCC)C(=O)O (mixture of isomers) [(L)-NVA-(DL)-Cl-vinylgly, L-norvalyl-D,L-3-chlorovinylglycine]	> 256 mg/mL
C=C(F)[C@H](NC(=O)[C@@H](N)CCC)C(=O)O.O=C(O)C(F)(F)F [(L)-NVA-(L)-F-vinylgly]	64 mg/mL
N[C@@H](C=CCl)C(=O)O [(L)Cl vinylgly, L-3-chlorovinylglycine]	> 256 mg/mL
C=C(Cl)[C@H](NC(=O)[C@@H](N)CCC)C(=O)O.O=C(O)C(F)(F)F [(L)-NVA-(L)-Cl-vinylgly]	> 256 mg/mL
